Provenance of the data: PubChem BioAssay (NCI)

TGI by entry:
# Test system: OVCAR-5 ovarian
# protocol.description: NCI tumour cell line growth inhibition, 48 h

compound	TGI
CC(=O)OCC(OC(C)=O)C(OC(C)=O)C(/C=N/N(C(C)=O)S(=O)(=O)c1ccc(/C=C2\NC(=O)NC2=O)cc1)OC(C)=O (centres undefined)	> 100 µM
CC(=NNC(=S)Nc1ccccc1C)c1cccc(C(C)=NNC(=S)Nc2ccccc2C)n1	> 100 µM
COc1ccc(-c2ccc(/C=N/n3cn[nH]c3=S)o2)c([N+](=O)[O-])c1	> 100 µM
O=C1/C(=C/c2cccc([N+](=O)[O-])c2)COc2ccccc21	> 100 µM
CC(=O)c1c2c(cc3c1CC1(Cc4cc5c(cc4C1)CCC5)C3)CCC2	> 100 µM

Data request: Can you look up the measured TGI of O=C(CNC(=O)OCc1ccccc1)NCCCCC(NC(=O)OCc1ccccc1)C(=O)O (centres undefined) for me?
Data returned: > 100 µM

Data request: Data request, read-out TGI, for CC(C)(C)Cn1c(N)nc2ccc(-c3[nH]c(C(C)(C)C)nc3-c3ccc(F)cc3)nc21
Data returned: 29.3 µM

Data request: Looking for the measured TGI of CCCCCCN(C(=O)Oc1ccccc1)C(C#N)c1ccccc1 (centres undefined) , can you help?
Data returned: > 100 µM

Data request: Given the compound COC(=O)c1c2c(c(C)[n+]([O-])c1C)C(=O)C=C(NCc1ccc(Cl)cc1)C2=O , what is its reported TGI?
Data returned: 2.78 µM
